System: LG0567-F671-PDC complex spheroids viability
Protocol notes: Anticancer human tumor LG0567-F671-PDC patient-derived lung adenocarcinoma cell line growth inhibition [RAS]
Stated conditions: second compound 0.000949 µM; first compound 0.00316 µM; stronger effect = lower value
From the text: RAS pathway inhibitors in Combinations in Complex Spheroids A high-throughput screen of multi-cell type tumor spheroids was designed to identify active combinations of RAS pathway inhibitors and targeted small molecules. Complex spheroids include a stromal component modeled by human endothelial cells (HUVEC) and fibroblasts modeled by human mesenchymal stem cells (MSCs). […] Compounds. […] If the clinical Cmax for an agent had not been determined, the highest concentration tested was 10 microM. […]
Measure name: viability, T/C (%)

1. C=CC(=O)N1CCN(c2nc(OCC3CCCN3C)nc3c(F)c(-c4nc(N)cc(C)c4C(F)(F)F)c(Cl)cc23)C(C)C1 (centres undefined) + CCn1c(-c2cc(N3CCN(C)CC3)cnc2C(C)OC)c2c3cc(ccc31)-c1csc(n1)CC(NC(=O)C1CC1C)C(=O)N1CCCC(N1)C(=O)OCC(C)(C)C2 : 9.35
2. CC(C)n1nc(-c2ccc3oc(N)nc3c2)c2c(N)ncnc21 + CCn1c(-c2cccnc2C(C)OC)c2c3cc(ccc31)N1CCOC(CC(NC(=O)C(C(C)C)N(C)C(=O)C3(F)CCN(C(=O)C#CC(C)(C)N(C)C)CC3)C(=O)N3CCCC(N3)C(=O)OCC(C)(C)C2)C1 : 12.2
3. Nc1ccn(C2OC(CO)C(O)C2(F)F)c(=O)n1 (centres undefined) + CCn1c(-c2cccnc2C(C)OC)c2c3cc(ccc31)N1CCOC(CC(NC(=O)C(C(C)C)N(C)C(=O)C3(F)CCN(C(=O)C#CC(C)(C)N(C)C)CC3)C(=O)N3CCCC(N3)C(=O)OCC(C)(C)C2)C1 : 15.8
4. CCN1CCN(Cc2ccc(Nc3ncc(F)c(-c4cc(F)c5nc(C)n(C(C)C)c5c4)n3)nc2)CC1 + CCn1c(-c2cccnc2C(C)OC)c2c3cc(ccc31)N1CCOC(CC(NC(=O)C(C(C)C)N(C)C(=O)C3(F)CCN(C(=O)C#CC(C)(C)N(C)C)CC3)C(=O)N3CCCC(N3)C(=O)OCC(C)(C)C2)C1 : 15

* * *

In this section, each of the compounds is paired with its reported IC50.
System: LG0567-F671-PDC complex spheroids viability
Protocol notes: Anticancer human tumor LG0567-F671-PDC cell line growth inhibition [RAS];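 also: spheroids exposed to compound for seven days before readout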;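 as to IC50: luminescence signal used as a proxy for viable cells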
Stated conditions: curve of first compound; second compound 0.3 µM
Measure name: IC50

1. CC(C)n1nc(-c2ccc3oc(N)nc3c2)c2c(N)ncnc21 + CCn1c(-c2cccnc2C(C)OC)c2c3cc(ccc31)N1CCOC(CC(NC(=O)C(C(C)C)N(C)C(=O)C3(F)CCN(C(=O)C#CC(C)(C)N(C)C)CC3)C(=O)N3CCCC(N3)C(=O)OCC(C)(C)C2)C1 : < 0.000316 µM
2. NC1c2ccccc2OC12CCN(c1cnc3c(N4CCCc5ncccc54)n[nH]c3n1)CC2 (centres undefined) + CCn1c(-c2cc(N3CCN(C)CC3)cnc2C(C)OC)c2c3cc(ccc31)-c1csc(n1)CC(NC(=O)C1CC1C)C(=O)N1CCCC(N1)C(=O)OCC(C)(C)C2 : < 0.0316 µM
3. CC1(O)CCCC1n1c(=O)c(C(F)F)cc2cnc(NC3CCN(S(C)(=O)=O)CC3)nc21 (centres undefined) + CCn1c(-c2cc(N3CCN(C)CC3)cnc2C(C)OC)c2c3cc(ccc31)-c1csc(n1)CC(NC(=O)C1CC1C)C(=O)N1CCCC(N1)C(=O)OCC(C)(C)C2 : < 0.0316 µM
4. C=CC(=O)N1CCN(c2nc(OCC3CCCN3C)nc3c(F)c(-c4nc(N)cc(C)c4C(F)(F)F)c(Cl)cc23)C(C)C1 (centres undefined) + CCn1c(-c2cccnc2C(C)OC)c2c3cc(ccc31)N1CCOC(CC(NC(=O)C(C(C)C)N(C)C(=O)C3(F)CCN(C(=O)C#CC(C)(C)N(C)C)CC3)C(=O)N3CCCC(N3)C(=O)OCC(C)(C)C2)C1 : < 0.00316 µM
5. CC(=O)OC12COC1CC(O)C1(C)C(=O)C(O)C3=C(C)C(OC(=O)C(O)C(NC(=O)OC(C)(C)C)c4ccccc4)CC(O)(C(OC(=O)c4ccccc4)C21)C3(C)C (centres undefined) + CCn1c(-c2cc(N3CCN(C)CC3)cnc2C(C)OC)c2c3cc(ccc31)-c1csc(n1)CC(NC(=O)C1CC1C)C(=O)N1CCCC(N1)C(=O)OCC(C)(C)C2 : < 0.0316 µM
6. CC1(C)CCC(Nc2ncc(C(F)(F)F)c(-c3c[nH]c4c(P(C)(C)=O)c(C#N)ccc34)n2)CN1 (centres undefined) + CCn1c(-c2cccnc2C(C)OC)c2c3cc(ccc31)N1CCOC(CC(NC(=O)C(C(C)C)N(C)C(=O)C3(F)CCN(C(=O)C#CC(C)(C)N(C)C)CC3)C(=O)N3CCCC(N3)C(=O)OCC(C)(C)C2)C1 : < 0.000949 µM
7. O=C(c1ccc(F)c(F)c1Nc1ccc(I)cc1F)N1CC(O)([C@@H]2CCCCN2)C1 + CCn1c(-c2cccnc2C(C)OC)c2c3cc(ccc31)N1CCOC(CC(NC(=O)C(C(C)C)N(C)C(=O)C3(F)CCN(C(=O)C#CC(C)(C)N(C)C)CC3)C(=O)N3CCCC(N3)C(=O)OCC(C)(C)C2)C1 : < 0.00316 µM
8. Nc1ccn(C2OC(CO)C(O)C2(F)F)c(=O)n1 (centres undefined) + CCn1c(-c2cccnc2C(C)OC)c2c3cc(ccc31)N1CCOC(CC(NC(=O)C(C(C)C)N(C)C(=O)C3(F)CCN(C(=O)C#CC(C)(C)N(C)C)CC3)C(=O)N3CCCC(N3)C(=O)OCC(C)(C)C2)C1 : < 0.00316 µM
9. CC1(O)CCCC1n1c(=O)c(C(F)F)cc2cnc(NC3CCN(S(C)(=O)=O)CC3)nc21 (centres undefined) + CCn1c(-c2cccnc2C(C)OC)c2c3cc(ccc31)N1CCOC(CC(NC(=O)C(C(C)C)N(C)C(=O)C3(F)CCN(C(=O)C#CC(C)(C)N(C)C)CC3)C(=O)N3CCCC(N3)C(=O)OCC(C)(C)C2)C1 : < 0.0316 µM
10. CCC(CC)c1cc(NC2CCC(N)C2)n2nccc2n1 (centres undefined) + CCn1c(-c2cccnc2C(C)OC)c2c3cc(ccc31)N1CCOC(CC(NC(=O)C(C(C)C)N(C)C(=O)C3(F)CCN(C(=O)C#CC(C)(C)N(C)C)CC3)C(=O)N3CCCC(N3)C(=O)OCC(C)(C)C2)C1 : < 0.0316 µM
11. NC1c2ccccc2OC12CCN(c1cnc3c(N4CCCc5ncccc54)n[nH]c3n1)CC2 (centres undefined) + CCn1c(-c2cccnc2C(C)OC)c2c3cc(ccc31)N1CCOC(CC(NC(=O)C(C(C)C)N(C)C(=O)C3(F)CCN(C(=O)C#CC(C)(C)N(C)C)CC3)C(=O)N3CCCC(N3)C(=O)OCC(C)(C)C2)C1 : < 0.0316 µM
12. CC(=O)OC12COC1CC(O)C1(C)C(=O)C(O)C3=C(C)C(OC(=O)C(O)C(NC(=O)OC(C)(C)C)c4ccccc4)CC(O)(C(OC(=O)c4ccccc4)C21)C3(C)C (centres undefined) + CCn1c(-c2cccnc2C(C)OC)c2c3cc(ccc31)N1CCOC(CC(NC(=O)C(C(C)C)N(C)C(=O)C3(F)CCN(C(=O)C#CC(C)(C)N(C)C)CC3)C(=O)N3CCCC(N3)C(=O)OCC(C)(C)C2)C1 : < 0.0316 µM
13. CCN1CCN(Cc2ccc(Nc3ncc(F)c(-c4cc(F)c5nc(C)n(C(C)C)c5c4)n3)nc2)CC1 + CCn1c(-c2cccnc2C(C)OC)c2c3cc(ccc31)N1CCOC(CC(NC(=O)C(C(C)C)N(C)C(=O)C3(F)CCN(C(=O)C#CC(C)(C)N(C)C)CC3)C(=O)N3CCCC(N3)C(=O)OCC(C)(C)C2)C1 : < 0.00316 µM
14. CC(Nc1ccc2c(c1)OCCn1cc(N3C(=O)OCC3C(F)F)nc1-2)C(N)=O (centres undefined) + CCn1c(-c2cccnc2C(C)OC)c2c3cc(ccc31)N1CCOC(CC(NC(=O)C(C(C)C)N(C)C(=O)C3(F)CCN(C(=O)C#CC(C)(C)N(C)C)CC3)C(=O)N3CCCC(N3)C(=O)OCC(C)(C)C2)C1 : < 0.0316 µM
